Target: Neuronal acetylcholine receptor; alpha3/beta4 (Rattus norvegicus, UniProt P04757+P12392)
Experiment: Displacement of [3H]epibatidine from rat alpha3beta4 nicotinic receptor expressed in human HEK293 cells by liquid scintillation counting
measuredAttribute: Ki (nM)
Please state the figure in nM; there is no need to write the unit.

Worked set:
[
  {
    "compoundStructure": "Fc1ncccc1OC[C@@H]1CCN1",
    "measuredAttribute": "Ki",
    "quantitativeReadout": 3700
  },
  {
    "compoundStructure": "CN1CCC[C@@H]1COc1cnc(Cl)c(OCc2ccc(Cl)nc2)c1",
    "measuredAttribute": "Ki",
    "quantitativeReadout": 350
  },
  {
    "compoundStructure": "CN1CCC[C@H]1COc1cnc(Cl)c(OCc2ccc(Cl)nc2)c1",
    "measuredAttribute": "Ki",
    "quantitativeReadout": 320
  },
  {
    "compoundStructure": "CN1CCC[C@H]1COc1cnc(Cl)c(OCc2ccnc(F)c2)c1",
    "measuredAttribute": "Ki",
    "quantitativeReadout": 90
  },
  {
    "compoundStructure": "CN1CCC[C@H]1COc1cnc(Cl)c(-c2ccnc(F)c2)c1",
    "measuredAttribute": "Ki",
    "quantitativeReadout": 590
  }
]

API: the following record is the query input.
Q: Please give measured Ki of the following entry: Fc1cc(COc2cc(OC[C@@H]3CCCN3)cnc2Cl)ccn1
Result: 43

###

Target: Neuronal acetylcholine receptor; alpha2/beta4 (Rattus norvegicus, UniProt P12389+P12392)
Sequence (P12389 whole entry): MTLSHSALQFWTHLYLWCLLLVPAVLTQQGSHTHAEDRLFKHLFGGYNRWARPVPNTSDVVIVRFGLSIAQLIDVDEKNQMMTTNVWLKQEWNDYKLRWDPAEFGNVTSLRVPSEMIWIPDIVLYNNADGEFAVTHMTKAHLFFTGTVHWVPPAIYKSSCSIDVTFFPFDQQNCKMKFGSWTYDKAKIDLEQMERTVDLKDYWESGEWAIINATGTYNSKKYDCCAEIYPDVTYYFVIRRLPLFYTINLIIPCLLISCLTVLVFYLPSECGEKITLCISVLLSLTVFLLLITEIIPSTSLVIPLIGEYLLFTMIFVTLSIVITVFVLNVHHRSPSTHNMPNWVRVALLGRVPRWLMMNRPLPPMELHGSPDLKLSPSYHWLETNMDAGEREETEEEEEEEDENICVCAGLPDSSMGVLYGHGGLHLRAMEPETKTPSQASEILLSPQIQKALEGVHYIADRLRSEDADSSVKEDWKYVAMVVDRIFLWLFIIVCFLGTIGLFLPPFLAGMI
Sequence (P12392 whole entry): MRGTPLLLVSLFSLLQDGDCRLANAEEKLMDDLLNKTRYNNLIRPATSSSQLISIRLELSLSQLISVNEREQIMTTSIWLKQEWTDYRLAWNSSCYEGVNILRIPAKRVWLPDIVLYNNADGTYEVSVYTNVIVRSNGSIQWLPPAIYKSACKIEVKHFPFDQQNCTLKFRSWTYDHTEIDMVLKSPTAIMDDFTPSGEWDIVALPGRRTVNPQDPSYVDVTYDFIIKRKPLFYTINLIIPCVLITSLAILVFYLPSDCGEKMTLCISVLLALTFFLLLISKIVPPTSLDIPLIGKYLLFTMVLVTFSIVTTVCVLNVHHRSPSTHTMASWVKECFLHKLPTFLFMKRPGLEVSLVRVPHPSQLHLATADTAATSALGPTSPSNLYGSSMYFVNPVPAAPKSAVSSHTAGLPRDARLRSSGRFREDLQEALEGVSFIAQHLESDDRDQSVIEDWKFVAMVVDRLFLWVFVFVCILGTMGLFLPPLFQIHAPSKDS
Assay: Displacement of [3H]epibatidine from rat alpha2beta4 nicotinic receptor expressed in human HEK293 cells by liquid scintillation counting
Listed next: entries and their corresponding log10 of Ki.
Please keep in mind that the values are log10 of Ki expressed in nM.

Below, each entry is followed by its recorded log10 of Ki result.
[
  {
    "compoundStructure": "Fc1ncccc1OC[C@@H]1CCN1",
    "subjectOfTest": "Neuronal acetylcholine receptor; alpha2/beta4 (Rattus norvegicus, UniProt P12389+P12392)",
    "measuredAttribute": "log10 of Ki",
    "quantitativeReadout": 2.26
  },
  {
    "compoundStructure": "CN1CCC[C@H]1COc1cnc(Cl)c(-c2ccnc(F)c2)c1",
    "subjectOfTest": "Neuronal acetylcholine receptor; alpha2/beta4 (Rattus norvegicus, UniProt P12389+P12392)",
    "measuredAttribute": "log10 of Ki",
    "quantitativeReadout": 1.43
  },
  {
    "compoundStructure": "CN1CCC[C@H]1COc1cnc(Cl)c(OCc2ccnc(F)c2)c1",
    "subjectOfTest": "Neuronal acetylcholine receptor; alpha2/beta4 (Rattus norvegicus, UniProt P12389+P12392)",
    "measuredAttribute": "log10 of Ki",
    "quantitativeReadout": 1.04
  },
  {
    "compoundStructure": "Fc1cc(COc2cc(OC[C@@H]3CCCN3)cnc2Cl)ccn1",
    "subjectOfTest": "Neuronal acetylcholine receptor; alpha2/beta4 (Rattus norvegicus, UniProt P12389+P12392)",
    "measuredAttribute": "log10 of Ki",
    "quantitativeReadout": 0.91
  }
]

Q: System Neuronal acetylcholine receptor; alpha2/beta4 (Rattus norvegicus, UniProt P12389+P12392). Read-out log10 of Ki. Item CN1CCC[C@@H]1COc1cnc(Cl)c(OCc2ccc(Cl)nc2)c1 . Report value.
Result: 1.34

Q: Find the measured log10 of Ki of CN1CCC[C@H]1COc1cnc(Cl)c(OCc2ccc(Cl)nc2)c1 with Neuronal acetylcholine receptor; alpha2/beta4 (Rattus norvegicus, UniProt P12389+P12392) as test system.
Result: 1.15

###

logD reference
Experiment: Octanol-water partition coefficient, log D at pH 7.4 by shake flask method
Assay type: physicochemical
Output spec: single numeric token, no unit.

# count of solved cases: 3
[
  {
    "compoundStructure": "CN1CCC[C@@H]1COc1cnc(Cl)c(OCc2ccc(Cl)nc2)c1",
    "quantitativeReadout": 2.2
  },
  {
    "compoundStructure": "Fc1cc(COc2cc(OC[C@@H]3CCCN3)cnc2Cl)ccn1",
    "quantitativeReadout": 1.4
  },
  {
    "compoundStructure": "CN1CCC[C@H]1COc1cnc(Cl)c(-c2ccnc(F)c2)c1",
    "quantitativeReadout": 1.6
  }
]

Now consider a different molecule.
Q: Complete the entry with logD for CN1CCC[C@H]1COc1cnc(Cl)c(OCc2ccnc(F)c2)c1
Result: 1.8

###

Species on record: Rattus norvegicus
Test: Selectivity ratio of Ki for rat alpha3beta4 nicotinic receptor to Ki for rat alpha4beta2 nicotinic receptor
Lab note: cut-off is 6000. Strictly less in Ratio Ki is T. Exactly 6000 or more is F.

Answered examples (3):
[
  {
    "compoundStructure": "CN1CCC[C@@H]1COc1cnc(Cl)c(OCc2ccc(Cl)nc2)c1",
    "qualitativeLabel": "T"
  },
  {
    "compoundStructure": "CN1CCC[C@H]1COc1cnc(Cl)c(-c2ccnc(F)c2)c1",
    "qualitativeLabel": "F"
  },
  {
    "compoundStructure": "Fc1cc(COc2cc(OC[C@@H]3CCCN3)cnc2Cl)ccn1",
    "qualitativeLabel": "T"
  }
]

Continue with the compound presented below.
Q: Strictly below 6000: is that where Ratio Ki of CN1CCC[C@H]1COc1cnc(Cl)c(OCc2ccnc(F)c2)c1 sits?
Result: T

###

Molecular target: Neuronal acetylcholine receptor subunit alpha-2 (Rattus norvegicus, UniProt P12389+P12390)
Assay: Displacement of [3H]epibatidine from rat alpha2beta2 nicotinic receptor expressed in human HEK293 cells by liquid scintillation counting
measuredAttribute: pKi
Scale: pKi equals -log10([C]), with [C] in mol/L.

# example entries with known answers
[
  {
    "compoundStructure": "CN1CCC[C@H]1COc1cnc(Cl)c(OCc2ccc(Cl)nc2)c1",
    "pKi": 10.51
  },
  {
    "compoundStructure": "Fc1cc(COc2cc(OC[C@@H]3CCCN3)cnc2Cl)ccn1",
    "pKi": 10.46
  },
  {
    "compoundStructure": "CN1CCC[C@@H]1COc1cnc(Cl)c(OCc2ccc(Cl)nc2)c1",
    "pKi": 8.82
  },
  {
    "compoundStructure": "CN1CCC[C@H]1COc1cnc(Cl)c(OCc2ccnc(F)c2)c1",
    "pKi": 10.66
  }
]

Q: Under Neuronal acetylcholine receptor subunit alpha-2 (Rattus norvegicus, UniProt P12389+P12390), report pKi for CN1CCC[C@H]1COc1cnc(Cl)c(-c2ccnc(F)c2)c1
Result: 10.30

Q: State pKi (Neuronal acetylcholine receptor subunit alpha-2 (Rattus norvegicus, UniProt P12389+P12390)) of Fc1ncccc1OC[C@@H]1CCN1 .
Result: 8.85

###

log10 of Ki: recorded values
Target: Neuronal acetylcholine receptor; alpha3/beta2 (Rattus norvegicus, UniProt P04757+P12390)
Sequence (P04757 whole entry): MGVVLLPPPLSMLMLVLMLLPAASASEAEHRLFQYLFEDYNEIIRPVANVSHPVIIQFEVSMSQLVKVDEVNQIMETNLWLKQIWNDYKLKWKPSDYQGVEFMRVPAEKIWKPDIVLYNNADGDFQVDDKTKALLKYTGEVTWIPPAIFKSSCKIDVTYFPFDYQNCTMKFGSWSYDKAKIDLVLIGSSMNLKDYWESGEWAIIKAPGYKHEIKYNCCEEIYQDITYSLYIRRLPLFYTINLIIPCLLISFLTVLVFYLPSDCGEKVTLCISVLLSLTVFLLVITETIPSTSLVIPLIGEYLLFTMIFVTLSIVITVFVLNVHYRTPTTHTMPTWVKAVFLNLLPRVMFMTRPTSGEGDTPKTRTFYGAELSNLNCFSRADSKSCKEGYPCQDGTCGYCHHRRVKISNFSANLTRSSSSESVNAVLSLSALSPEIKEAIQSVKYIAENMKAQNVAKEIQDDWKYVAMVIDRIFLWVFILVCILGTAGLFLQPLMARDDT
Sequence (P12390 whole entry): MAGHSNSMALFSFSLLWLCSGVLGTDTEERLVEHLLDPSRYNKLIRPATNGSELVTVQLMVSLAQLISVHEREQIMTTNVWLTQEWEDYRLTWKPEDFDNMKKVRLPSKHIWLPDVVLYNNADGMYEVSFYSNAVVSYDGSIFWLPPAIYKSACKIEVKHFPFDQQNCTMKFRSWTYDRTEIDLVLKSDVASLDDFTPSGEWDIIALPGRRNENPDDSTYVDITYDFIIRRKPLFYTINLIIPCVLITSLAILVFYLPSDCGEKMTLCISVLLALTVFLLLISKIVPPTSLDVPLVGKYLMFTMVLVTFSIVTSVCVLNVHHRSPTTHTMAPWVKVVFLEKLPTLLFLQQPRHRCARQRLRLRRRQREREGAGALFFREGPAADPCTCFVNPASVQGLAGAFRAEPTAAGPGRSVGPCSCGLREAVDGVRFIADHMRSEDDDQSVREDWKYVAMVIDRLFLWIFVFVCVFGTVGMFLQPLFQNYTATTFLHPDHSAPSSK
Assay: Displacement of [3H]epibatidine from rat alpha3beta2 nicotinic receptor expressed in human HEK293 cells by liquid scintillation counting
Assay type: cell-based
The figures below represent log10 of Ki, where Ki is stated in nM.

As a guide, the following entries are already answered.
[
  {
    "compoundStructure": "CN1CCC[C@@H]1COc1cnc(Cl)c(OCc2ccc(Cl)nc2)c1",
    "log10 of Ki": -0.07
  },
  {
    "compoundStructure": "CN1CCC[C@H]1COc1cnc(Cl)c(OCc2ccnc(F)c2)c1",
    "log10 of Ki": -0.48
  },
  {
    "compoundStructure": "CN1CCC[C@H]1COc1cnc(Cl)c(OCc2ccc(Cl)nc2)c1",
    "log10 of Ki": -0.59
  },
  {
    "compoundStructure": "Fc1ncccc1OC[C@@H]1CCN1",
    "log10 of Ki": 0.48
  },
  {
    "compoundStructure": "CN1CCC[C@H]1COc1cnc(Cl)c(-c2ccnc(F)c2)c1",
    "log10 of Ki": -0.15
  }
]

Q: State measured log10 of Ki of the compound Fc1cc(COc2cc(OC[C@@H]3CCCN3)cnc2Cl)ccn1 with Neuronal acetylcholine receptor; alpha3/beta2 (Rattus norvegicus, UniProt P04757+P12390).
Result: -0.60
